Recorded pKi by entry
TARGET OR TEST SYSTEM: JAK2 (Homo sapiens)
Construct: made in house; host or cells: SF9 insect cells (baculovirus)
Sequence (O60674 812-1132): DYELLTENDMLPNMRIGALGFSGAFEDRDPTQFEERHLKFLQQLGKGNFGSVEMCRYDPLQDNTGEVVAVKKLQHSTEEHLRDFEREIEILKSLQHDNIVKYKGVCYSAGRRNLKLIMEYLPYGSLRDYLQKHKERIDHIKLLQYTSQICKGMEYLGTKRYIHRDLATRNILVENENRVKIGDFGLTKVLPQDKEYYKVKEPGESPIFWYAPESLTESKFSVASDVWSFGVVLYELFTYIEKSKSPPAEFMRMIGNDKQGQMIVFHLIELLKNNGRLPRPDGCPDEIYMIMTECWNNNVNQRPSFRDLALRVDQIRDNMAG
RUN DESCRIPTION: JAK2 inhibition (Table 4)
Type: biochemical
EXPERIMENTAL CONDITIONS: read-out: JAK2 Ki
In plain terms, pKi is the concentration in mol/L turned into minus its base-10 logarithm.

Previously resolved entries follow.
{"COMPOUND": "c1cc2c(ncc3ncn(CC4CCNC4)c32)[nH]1 (racemic)", "VALUE MEASURED": 5.96}
{"COMPOUND": "CN(CC(F)(F)F)C(=O)NC1CCC(n2cnc3cnc4[nH]ccc4c32)CC1 (centres unmarked)", "VALUE MEASURED": 7.94}
{"COMPOUND": "CN1CCC[C@H]1C(=O)N1CCC(n2nnc3cnc4[nH]ccc4c32)CC1", "VALUE MEASURED": 6.22}

I am curious: what pKi value has been reported for Cc1nc2cnc3[nH]ccc3c2n1C1CN2CCC1CC2 (centres unmarked) ?
6.69

I am curious: what pKi value has been reported for O=C([C@H]1CC[C@H](n2cnc3cnc4[nH]ccc4c32)CC1)N1CCOCC1 ?
6.82

I am curious: what pKi value has been reported for CC(C)(O)Cc1nc2cnc3[nH]ccc3c2n1C1CCN(CCC#N)CC1 ?
7.50

====

TARGET OR TEST SYSTEM: JAK1 (Homo sapiens, UniProt P23458)
Construct: made in house; host or cells: SF9 insect cells (baculovirus)
Sequence (P23458 852-1154): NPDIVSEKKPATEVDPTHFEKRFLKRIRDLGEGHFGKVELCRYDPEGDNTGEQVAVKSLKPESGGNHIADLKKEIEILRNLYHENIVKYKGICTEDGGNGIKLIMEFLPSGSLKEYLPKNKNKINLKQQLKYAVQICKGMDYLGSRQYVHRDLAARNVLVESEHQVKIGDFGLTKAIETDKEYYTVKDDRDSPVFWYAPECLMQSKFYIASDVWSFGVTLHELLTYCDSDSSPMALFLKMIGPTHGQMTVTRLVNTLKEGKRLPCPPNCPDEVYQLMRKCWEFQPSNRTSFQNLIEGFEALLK
RUN DESCRIPTION: JAK1 inhibition (Table 4)
Assay type: biochemical
EXPERIMENTAL CONDITIONS: read-out: JAK1 Ki
pKi: −log10 of the molar value.
Returns fulfilled if the recorded pKi is greater than or equal to 8, and not fulfilled otherwise.

# example entries with known answers
{"COMPOUND": "FC1CNCCC1n1nnc2cnc3[nH]ccc3c21 (racemic) [Example 518]", "CATEGORY LABEL": "not fulfilled"}
{"COMPOUND": "CC(C)(O)[C@H]1CC[C@H](n2cnc3cnc4[nH]ccc4c32)CC1", "CATEGORY LABEL": "fulfilled"}
{"COMPOUND": "c1ccc(CN2[C@@H]3CC[C@H]2C[C@H](n2cnc4cnc5[nH]ccc5c42)C3)cc1", "CATEGORY LABEL": "not fulfilled"}

Quick check, pKi >= 8? Cc1nc2cnc3[nH]ccc3c2n1[C@@H]1CCCN(C(=O)CC#N)C1
fulfilled

Quick check, pKi >= 8? CC(C)(C)OC(=O)N1CC(CN[C@H]2CC[C@H](n3cnc4cnc5[nH]ccc5c43)CC2)C1
not fulfilled

====

TARGET OR TEST SYSTEM: JAK3 (Homo sapiens, UniProt P52333)
Construct: made in house; host or cells: SF9 insect cells (baculovirus)
Sequence (P52333 783-1124): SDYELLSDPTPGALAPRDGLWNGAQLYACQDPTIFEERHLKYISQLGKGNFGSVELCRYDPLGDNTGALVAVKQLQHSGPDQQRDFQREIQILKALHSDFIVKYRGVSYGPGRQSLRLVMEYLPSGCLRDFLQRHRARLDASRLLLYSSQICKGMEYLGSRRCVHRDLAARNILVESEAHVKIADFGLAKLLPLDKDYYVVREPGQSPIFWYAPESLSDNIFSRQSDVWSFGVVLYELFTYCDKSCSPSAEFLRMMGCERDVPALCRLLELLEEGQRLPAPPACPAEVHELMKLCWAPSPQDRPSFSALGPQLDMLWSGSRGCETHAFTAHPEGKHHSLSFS
RUN DESCRIPTION: JAK3 inhibition (Table 4)
Format: biochemical
EXPERIMENTAL CONDITIONS: read-out: JAK3 Ki
Response field label: string, one of 1.0 (Ki strictly below 70 nM) or 0.0.

# example entries with known answers
{"COMPOUND": "c1cc2c(ncc3ncn(CC4CCNCC4)c32)[nH]1", "CATEGORY LABEL": 0.0}
{"COMPOUND": "Cc1nc2ncccn2c1CN1CCC(n2c([C@@H](C)O)nc3cnc4[nH]ccc4c32)CC1", "CATEGORY LABEL": 0.0}
{"COMPOUND": "CC(O)c1nc2cnc3[nH]ccc3c2n1C1CCN(Cc2cccnc2)CC1 (racemic)", "CATEGORY LABEL": 1.0}

Is the reported Ki for Cc1nc2cnc3[nH]ccc3c2n1C1CCN(CC(O)CO)CC1 (stereo not drawn) strictly below 70 nM?
1.0

Is the reported Ki for CCCS(=O)(=O)N1CCC(n2c(CC(N)=O)nc3cnc4[nH]ccc4c32)CC1 strictly below 70 nM?
0.0

Is the reported Ki for N#CCCN1CCCCC(n2cnc3cnc4[nH]ccc4c32)C1 (racemic) strictly below 70 nM?
1.0

====

TARGET OR TEST SYSTEM: JAK1 (Homo sapiens, UniProt P23458)
Construct: made in house; host or cells: SF9 insect cells (baculovirus)
RUN DESCRIPTION: JAK1 inhibition (Table 4)
Format: biochemical
EXPERIMENTAL CONDITIONS: read-out: JAK1 Ki
Response field label: string, one of Met (Ki strictly below 10 nM) or Not met.

# example entries with known answers
{"COMPOUND": "CC(C)(C)OC(=O)N1CCCC1(C)C(=O)N1CCC(n2cnc3cnc4[nH]ccc4c32)CC1 (racemic) [Example 244]", "TARGET OR TEST SYSTEM": "JAK1 (Homo sapiens, UniProt P23458)", "CATEGORY LABEL": "Not met"}
{"COMPOUND": "C[C@@H](O)c1nc2cnc3[nH]ccc3c2n1[C@H]1CCNC1 [Example 926]", "TARGET OR TEST SYSTEM": "JAK1 (Homo sapiens, UniProt P23458)", "CATEGORY LABEL": "Not met"}
{"COMPOUND": "C[C@@H](O)c1nc2cnc3[nH]ccc3c2n1[C@@H]1CCCN(C(=O)CC(F)(F)F)C1 [Example 785]", "TARGET OR TEST SYSTEM": "JAK1 (Homo sapiens, UniProt P23458)", "CATEGORY LABEL": "Not met"}
{"COMPOUND": "N#CCC(=O)N1CCC[C@@H](n2nnc3cnc4[nH]ccc4c32)C1 [Example 19]", "TARGET OR TEST SYSTEM": "JAK1 (Homo sapiens, UniProt P23458)", "CATEGORY LABEL": "Met"}

Is the reported Ki for COC(=O)N[C@H]1CC[C@H](n2nnc3cnc4[nH]ccc4c32)CC1 [Example 353] strictly below 10 nM?
Met

====

Recorded Ki by entry
Sequence of the target: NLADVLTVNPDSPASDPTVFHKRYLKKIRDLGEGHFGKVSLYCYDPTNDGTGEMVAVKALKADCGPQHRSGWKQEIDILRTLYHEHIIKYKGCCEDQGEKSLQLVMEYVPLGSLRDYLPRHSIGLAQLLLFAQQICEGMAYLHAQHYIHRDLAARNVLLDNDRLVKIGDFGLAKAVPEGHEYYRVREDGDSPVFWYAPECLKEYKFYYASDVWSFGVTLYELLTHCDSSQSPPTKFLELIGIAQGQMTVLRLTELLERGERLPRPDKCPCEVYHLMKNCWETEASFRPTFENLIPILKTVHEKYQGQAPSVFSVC
Your answer is read as nM, so omit the unit and give the number.

Previously resolved entries follow.
{"SMILES STRUCTURE": "N#CCN1CCC(N[C@H]2CC[C@H](n3cnc4cnc5[nH]ccc5c43)CC2)CC1", "Ki, nM": 65.2}
{"SMILES STRUCTURE": "CCOC(=O)N1CC[C@H](n2c([C@@H](C)O)nc3cnc4[nH]ccc4c32)C1", "Ki, nM": 232}
{"SMILES STRUCTURE": "CC(C)NC(=O)[C@H]1CC[C@H](n2nnc3cnc4[nH]ccc4c32)CC1", "Ki, nM": 550}

Now look at this entry.
I am curious: what Ki value has been reported for Cc1nc2cnc3[nH]ccc3c2n1[C@@H]1CC[C@@H](NCC(F)(F)F)C1 ?
54.5

====

TARGET OR TEST SYSTEM: JAK3 (Homo sapiens, UniProt P52333)
Construct: made in house; host or cells: SF9 insect cells (baculovirus)
RUN DESCRIPTION: JAK3 inhibition (Table 4)
Assay type: biochemical
EXPERIMENTAL CONDITIONS: JAK3 Ki
Recorded Ki by entry
Your answer is read as nM, so omit the unit and give the number.

{"MOLECULE": "N#CCC1CCC(n2c(CO)nc3cnc4[nH]ccc4c32)CC1 (mixture of isomers) [Example 643]", "PARAMETER": "Ki", "UNIT ABBREVIATION": "nM", "VALUE MEASURED": 5.26}

Now look at this entry.
I am curious: what Ki value has been reported for N#CC[C@H]1CC[C@H](n2c(CO)nc3cnc4[nH]ccc4c32)CC1 [Example 645] ?
3.56

====

TARGET OR TEST SYSTEM: JAK1 (Homo sapiens)
Construct: made in house; host or cells: SF9 insect cells (baculovirus)
RUN DESCRIPTION: JAK1 inhibition (Table 4)
Type: biochemical
EXPERIMENTAL CONDITIONS: JAK1 Ki
Recorded Ki by entry
Your answer is read as pM, so omit the unit and give the number.

{"MOLECULE": "N#CCC1CCC(n2c(CO)nc3cnc4[nH]ccc4c32)CC1 (mixture of isomers)", "Ki / pM": 270}

I am curious: what Ki value has been reported for N#CC[C@H]1CC[C@H](n2c(CO)nc3cnc4[nH]ccc4c32)CC1 ?
130

I am curious: what Ki value has been reported for FC(F)(F)c1nc2cnc3[nH]ccc3c2n1[C@@H]1CCCN(Cc2ccccc2)C1 ?
282000
